target: Gamma-hydroxybutyrate receptor (Rattus norvegicus) (UniProt Q6RY99); details: at 1 µM
RECORDED_METRIC: inhibition (%)

COMPOUND	RECORDED_METRIC	REPORTED_VALUE
C/C(=C\C(=O)O)CO	inhibition	11
O=C(O)/C=C(/CO)c1ccccc1	inhibition	21
O=C(O)/C=C/CO	inhibition	44
O=C(O)/C=C/C(O)C1CCCCC1 (centres undefined)	inhibition	13
O=C(O)CCC(O)c1ccccc1 (centres undefined)	inhibition	13
CC(O)CCC(=O)O (centres undefined)	inhibition	12
O=C(O)CCCO	inhibition	35
O=C(O)CCCCO	inhibition	22
O=C(O)/C=C/C(O)c1ccccc1 (centres undefined)	inhibition	39

----------
Reported inhibition by item:
target: Gamma-hydroxybutyrate receptor (Rattus norvegicus) (UniProt Q6RY99); details: at 10 µM

COMPOUND	inhibition, %
CC(CO)CC(=O)O (stereo not drawn)	59
O=C(O)CCCCO	53
C/C(=C\C(=O)O)CO	55
CCC(CO)CC(=O)O (stereo not drawn)	43
O=C(O)CCC(O)c1ccccc1 (stereo not drawn)	56
O=C(O)/C=C(/CO)c1ccccc1	34
CC(O)CCC(=O)O (stereo not drawn)	63
O=C(O)CCCO	55
CCCC(CO)CC(=O)O (stereo not drawn)	5
O=C(O)/C=C/CO	64
O=C(O)/C=C/C(O)c1ccccc1 (stereo not drawn)	70
CC(CCO)C(=O)O (stereo not drawn)	24
O=C(O)/C=C/C(O)C1CCCCC1 (stereo not drawn)	46

----------
Target: Gamma-hydroxybutyrate receptor (Rattus norvegicus)
Sequence (whole entry): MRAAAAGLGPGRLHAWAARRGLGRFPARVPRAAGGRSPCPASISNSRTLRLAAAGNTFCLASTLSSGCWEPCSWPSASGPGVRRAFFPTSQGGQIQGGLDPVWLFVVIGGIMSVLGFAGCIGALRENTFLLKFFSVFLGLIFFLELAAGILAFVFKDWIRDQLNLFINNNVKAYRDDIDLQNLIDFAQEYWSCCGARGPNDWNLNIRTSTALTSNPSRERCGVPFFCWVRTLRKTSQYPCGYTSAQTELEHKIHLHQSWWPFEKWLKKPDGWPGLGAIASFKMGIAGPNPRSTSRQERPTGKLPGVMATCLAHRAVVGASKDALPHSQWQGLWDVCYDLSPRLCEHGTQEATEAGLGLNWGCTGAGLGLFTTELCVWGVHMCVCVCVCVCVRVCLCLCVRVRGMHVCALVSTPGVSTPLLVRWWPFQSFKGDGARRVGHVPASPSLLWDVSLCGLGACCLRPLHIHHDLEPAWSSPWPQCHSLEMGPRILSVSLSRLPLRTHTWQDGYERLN
Details: at 10 µM
Calls of active or inactive are those of the source. No cut-off for these calls is given here.

MOLECULE	ASSAYED_SYSTEM	inhibition
O=S(=O)(O)CCCO	Gamma-hydroxybutyrate receptor (Rattus norvegicus)	inactive
O=C1C=CCO1	Gamma-hydroxybutyrate receptor (Rattus norvegicus)	inactive
O=S(=O)(O)CCCCO	Gamma-hydroxybutyrate receptor (Rattus norvegicus)	inactive
O=C(O)CC(CO)c1ccccc1 (stereo not given)	Gamma-hydroxybutyrate receptor (Rattus norvegicus)	inactive
O=C(O)CC(CO)Cc1ccccc1 (stereo not given)	Gamma-hydroxybutyrate receptor (Rattus norvegicus)	inactive
C/C(=C\C(=O)O)CO	Gamma-hydroxybutyrate receptor (Rattus norvegicus)	inactive
O=C(O)C(CCO)c1ccccc1 (stereo not given)	Gamma-hydroxybutyrate receptor (Rattus norvegicus)	inactive
OCCCCO	Gamma-hydroxybutyrate receptor (Rattus norvegicus)	inactive
O=C1CCCO1	Gamma-hydroxybutyrate receptor (Rattus norvegicus)	inactive
O=S(=O)([O-])CCO.[Na+]	Gamma-hydroxybutyrate receptor (Rattus norvegicus)	inactive
CC(C)C(CO)CC(=O)O (stereo not given)	Gamma-hydroxybutyrate receptor (Rattus norvegicus)	inactive
CC(CO)C(C)C(=O)O (stereo not given)	Gamma-hydroxybutyrate receptor (Rattus norvegicus)	inactive
O=C(O)CCO	Gamma-hydroxybutyrate receptor (Rattus norvegicus)	inactive
NCCCC(=O)O	Gamma-hydroxybutyrate receptor (Rattus norvegicus)	inactive
C=C(C)[C@@H]1[C@H]2OC(=O)[C@@H]1[C@]1(O)C[C@H]3OC34C(=O)O[C@H]2[C@@]41C.CC(C)(O)[C@@H]1[C@H]2OC(=O)[C@@H]1[C@]1(O)C[C@H]3OC34C(=O)O[C@H]2[C@@]41C (stereo not given in full)	Gamma-hydroxybutyrate receptor (Rattus norvegicus)	inactive
